TARGET UNDER TEST: Wee1 (h) (Homo sapiens, UniProt P30291)
Sequence (P30291 whole entry): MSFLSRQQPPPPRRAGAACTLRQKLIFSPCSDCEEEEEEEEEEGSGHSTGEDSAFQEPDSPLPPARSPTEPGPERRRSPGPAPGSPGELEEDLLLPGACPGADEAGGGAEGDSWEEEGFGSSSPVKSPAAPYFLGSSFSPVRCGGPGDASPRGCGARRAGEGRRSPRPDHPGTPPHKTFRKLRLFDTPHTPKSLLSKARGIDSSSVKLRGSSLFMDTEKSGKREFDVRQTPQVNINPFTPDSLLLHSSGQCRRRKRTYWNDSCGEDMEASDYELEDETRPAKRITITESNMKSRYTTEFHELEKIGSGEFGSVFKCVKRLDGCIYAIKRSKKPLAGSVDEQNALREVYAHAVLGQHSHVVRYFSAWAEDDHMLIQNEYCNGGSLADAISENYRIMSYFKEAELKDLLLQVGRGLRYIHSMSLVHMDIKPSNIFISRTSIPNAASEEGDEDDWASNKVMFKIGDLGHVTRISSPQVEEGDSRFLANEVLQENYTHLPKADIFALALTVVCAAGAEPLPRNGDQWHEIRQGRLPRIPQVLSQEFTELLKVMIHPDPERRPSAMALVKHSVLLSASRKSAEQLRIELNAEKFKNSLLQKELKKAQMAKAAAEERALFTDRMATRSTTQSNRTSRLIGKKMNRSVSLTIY
MEASUREMENT PROTOCOL: Wee1 kinase (h) detection method, [γ-33P]-ATP filter assay
Format: biochemical
PARTICULARS: C 0.1 μm compound
MEASUREMENT LABEL: Inh. (%) of Wee1 kinase enzyme activity
Unit % implied. Number only.

Request: Entry CN(C)C1CCN(c2ccc(Nc3ncc4c(n3)N3CCN=C3N(c3c(F)cccc3Cl)C4=O)cc2F)CC1 , system Wee1 (h) (Homo sapiens, UniProt P30291): what Inh. (%) of Wee1 kinase enzyme activity was measured?
Response: 77

Request: Another compound to check: CN1CCN(c2c(Cl)cc(Nc3ncc4c(n3)N3CCN=C3N(c3c(Cl)cccc3Br)C4=O)cc2Cl)CC1
Response: 68

Request: Another compound to check: CN1CCN(c2ccc(Nc3ncc4c(n3)N3CCN=C3N(c3c(Cl)cccc3Cl)C4=O)cc2Br)CC1
Response: 72

Okay, next one:
Request: Entry CC(C)N1Cc2cc(Nc3ncc4c(n3)N3CCN=C3N(c3c(F)cccc3Cl)C4=O)ccc2C2(CC2)C1 , system Wee1 (h) (Homo sapiens, UniProt P30291): what Inh. (%) of Wee1 kinase enzyme activity was measured?
Response: 92

====

TARGET UNDER TEST: Wee1 (h) (Homo sapiens, UniProt P30291)
MEASUREMENT PROTOCOL: Wee1 kinase (h) detection method, [γ-33P]-ATP filter assay
Format: biochemical
PARTICULARS: C 0.01 μm compound
MEASUREMENT LABEL: Inh. (%) of Wee1 kinase enzyme activity
Unit % implied. Number only.

Request: Using the record for CN(C)C1CCN(c2ccc(Nc3ncc4c(n3)N3CCN=C3N(c3c(F)cccc3Cl)C4=O)cc2)CC1 , report its Inh. (%) of Wee1 kinase enzyme activity.
Response: 34

Request: Another compound to check: CN1CCc2ccc(Nc3ncc4c(n3)N3CCN=C3N(c3c(F)cccc3Cl)C4=O)cc2C1
Response: 60

Request: Another compound to check: C[C@@H]1CN(c2ccc(Nc3ncc4c(n3)N3CCN=C3N(c3c(F)cccc3Cl)C4=O)cc2)C[C@H](C)N1C
Response: 38

Request: Another compound to check: CC(C)N1CCN(c2ccc(Nc3ncc4c(n3)N3CCN=C3N(c3c(F)cccc3Cl)C4=O)cc2)CC1
Response: 33

Request: Another compound to check: CN1CCN(c2ccc(Nc3ncc4c(n3)N3CCN=C3N(c3c(Cl)cccc3Br)C4=O)cc2Cl)CC1
Response: 27

Request: Another compound to check: Cc1cc(Nc2ncc3c(n2)N2CCN=C2N(c2c(Cl)cccc2Cl)C3=O)cc2c1CCN(C)C2
Response: 27

Request: Another compound to check: Cc1cc(Nc2ncc3c(n2)N2CCN=C2N(c2c(F)cccc2Cl)C3=O)cc(F)c1N1CCN(C)CC1
Response: 43

Request: Another compound to check: C[C@@H]1CN(c2ccc(Nc3ncc4c(n3)N3CCN=C3N(c3c(Cl)cccc3Cl)C4=O)cc2F)C[C@H](C)N1C
Response: 17

New cases:
Request: Using the record for CN(C)C1CCN(c2ccc(Nc3ncc4c(n3)N3CCN=C3N(c3c(Cl)cccc3Cl)C4=O)cc2)CC1 , report its Inh. (%) of Wee1 kinase enzyme activity.
Response: 22

Request: Another compound to check: CN(C)C1CCN(c2ccc(Nc3ncc4c(n3)N3CCN=C3N(c3c(F)cccc3Cl)C4=O)cc2Br)CC1
Response: 25

Request: Another compound to check: Cc1cc(Nc2ncc3c(n2)N2CCN=C2N(c2c(Cl)cccc2Cl)C3=O)ccc1N1CCN(C)CC1
Response: 24

Request: Another compound to check: Cc1cc(Nc2ncc3c(n2)N2CCN=C2N(c2c(Cl)cccc2Cl)C3=O)cc(F)c1N1CCN(C)CC1
Response: 40

Request: Another compound to check: CC(=O)N1Cc2cc(Nc3ncc4c(n3)N3CCN=C3N(c3c(F)cccc3Cl)C4=O)ccc2C2(CC2)C1
Response: 23

====

Recorded pIC50, one value per entry.
Test system: NCI-H1299 cells
MEASUREMENT PROTOCOL: MTT based cell viability assay on NCI-H1299 cells
PARTICULARS: Homo sapiens, NCI-H1299, NCI-H1299 cells, read-out: IC50, growth inhibition of NCI-H1299 cells
# pIC50 is unitless: minus log10 of the molar concentration; print number only

Request: Using the record for CN(C)C1CCN(c2c(Cl)cc(Nc3ncc4c(n3)N3CCN=C3N(c3c(Cl)cccc3Cl)C4=O)cc2Cl)CC1 , report its pIC50.
Response: 6.96

Request: Another molecule to check: Cc1cc(Nc2ncc3c(n2)N2CCN=C2N(c2c(Cl)cccc2Br)C3=O)cc(Cl)c1N1CCN(C)CC1
Response: 7.00

New cases:
Request: Using the record for Cc1cccc(Cl)c1N1C(=O)c2cnc(Nc3ccc(N4CCN(C)CC4)c(Cl)c3)nc2N2CCN=C21 , report its pIC50.
Response: 6.35

Request: Another molecule to check: CN1CCC(c2ccc(Nc3ncc4c(n3)N3CCN=C3N(c3c(F)cccc3Cl)C4=O)cc2)CC1
Response: 6.63

====

TARGET UNDER TEST: Wee1 (h) (Homo sapiens, UniProt P30291)
MEASUREMENT PROTOCOL: Wee1 kinase (h) detection method, [γ-33P]-ATP filter assay
Type: biochemical
PARTICULARS: C 0.1 μm compound
Description: Determination of the inhibitory effect of 6-(2-chlorophenyl)-2-((4-(4-methylpiperazin-1-yl)phenyl)amino)-8,9-dihydroimidazo[1,2-a]pyrimido[5,4-e]pyrimidin-5(6H)-one and Analogs on the Enzyme Activity of Wee1 Kinase by Using the Wee1 Kinase (h) Detection Method Then the stock solution of all compounds under test with 50× concentration in 100% DMSO was added to make the final concentration of 10/1/0.1/0.01 μM, and then mixed the mixture well. […]
MEASUREMENT LABEL: Inh. (%) of Wee1 kinase enzyme activity
Unit % implied. Number only.

Worked set:
Request: Entry C[C@@H]1CN(c2ccc(Nc3ncc4c(n3)N3CCN=C3N(c3c(Cl)cccc3Cl)C4=O)cc2C(F)(F)F)C[C@H](C)N1C [Example 74] , system Wee1 (h) (Homo sapiens, UniProt P30291): what Inh. (%) of Wee1 kinase enzyme activity was measured?
Response: 61

Request: Another molecule to check: CN(C)C1CCN(c2c(Cl)cc(Nc3ncc4c(n3)N3CCN=C3N(c3c(Cl)cccc3Cl)C4=O)cc2Cl)CC1 [Example 142]
Response: 75

Request: Another molecule to check: Cc1cc(Nc2ncc3c(n2)N2CCN=C2N(c2c(F)cccc2Cl)C3=O)cc(Cl)c1N1CCN(C)CC1 [Example 125]
Response: 74

New cases:
Request: Entry CN1CCN(c2ccc(Nc3ncc4c(n3)N3CCN=C3N(c3c(Cl)cccc3Br)C4=O)cc2Br)CC1 [Example 162] , system Wee1 (h) (Homo sapiens, UniProt P30291): what Inh. (%) of Wee1 kinase enzyme activity was measured?
Response: 86

Request: Another molecule to check: CN(C)C1CCN(c2ccc(Nc3ncc4c(n3)N3CCN=C3N(c3c(F)cccc3Cl)C4=O)cc2Br)CC1 [Example 118]
Response: 82

Request: Another molecule to check: C[C@@H]1CN(c2ccc(Nc3ncc4c(n3)N3CCN=C3N(c3c(F)cccc3Cl)C4=O)cc2C(F)(F)F)C[C@H](C)N1C [Example 49]
Response: 86

Request: Another molecule to check: Cc1cc(Nc2ncc3c(n2)N2CCN=C2N(c2c(F)cccc2Cl)C3=O)cc(F)c1N1CCN(C)CC1 [Example 123]
Response: 87

Request: Another molecule to check: COc1cc(Nc2ncc3c(n2)N2CCN=C2N(c2c(Cl)cccc2Cl)C3=O)cc(Cl)c1N1CCN(C)CC1 [Example 153]
Response: 84

Request: Another molecule to check: CN1CCN(c2ccc(Nc3ncc4c(n3)N3CCN=C3N(c3c(Cl)cccc3Cl)C4=O)cc2Cl)CC1 [Example 71]
Response: 74

Request: Another molecule to check: CN1CCN(c2ccc(Nc3ncc4c(n3)N3CCN=C3N(c3c(F)cccc3Cl)C4=O)cc2C(F)(F)F)CC1 [Example 48]
Response: 75

====

Recorded Inh. (%) of Wee1 kinase enzyme activity, one value per entry.
TARGET UNDER TEST: Wee1 (h) (Homo sapiens, UniProt P30291)
MEASUREMENT PROTOCOL: Wee1 kinase (h) detection method, [γ-33P]-ATP filter assay
Assay type: biochemical
PARTICULARS: C 0.01 μm compound
Unit % implied. Number only.

Worked set:
Request: Using the record for Cc1cccc(Cl)c1N1C(=O)c2cnc(Nc3cc(Cl)c(N4CCN(C)CC4)c(Cl)c3)nc2N2CCN=C21 , report its Inh. (%) of Wee1 kinase enzyme activity.
Response: 12

Request: Another molecule to check: Cc1cc(Nc2ncc3c(n2)N2CCN=C2N(c2c(C)cccc2Cl)C3=O)ccc1N1CCN(C)CC1
Response: 7

Request: Another molecule to check: Cc1cc(Nc2ncc3c(n2)N2CCN=C2N(c2c(Cl)cccc2Br)C3=O)cc(Br)c1N1CCN(C)CC1
Response: 21

Okay, next one:
Request: Using the record for CC(C)N1CCN(c2ccc(Nc3ncc4c(n3)N3CCN=C3N(c3c(Cl)cccc3Cl)C4=O)cc2)CC1 , report its Inh. (%) of Wee1 kinase enzyme activity.
Response: 17
